Molecular target: humanized therapeutic monoclonal antibody IgG1 (hIgG1)
Assay: ELISA, medium of transfected HEK293F; signal on hIgG1 over signal on cynoIgG
Measurement Kind: ELISA signal ratio hIgG1/CynoIgG
When you answer, write just the number.

Binder	ELISA signal ratio hIgG1/CynoIgG
rabbit anti-human IgG monoclonal antibody clone 11G5 (antibody, V domains shown) VH: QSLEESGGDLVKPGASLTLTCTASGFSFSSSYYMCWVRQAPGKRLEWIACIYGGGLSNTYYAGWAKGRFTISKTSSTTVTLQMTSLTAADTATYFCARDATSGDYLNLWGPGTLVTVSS VL: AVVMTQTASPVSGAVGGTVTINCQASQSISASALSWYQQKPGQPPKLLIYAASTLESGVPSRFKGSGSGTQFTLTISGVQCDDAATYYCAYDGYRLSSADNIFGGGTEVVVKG	4.94
rabbit anti-human IgG monoclonal antibody clone 2C5 (antibody, V domains shown) VH: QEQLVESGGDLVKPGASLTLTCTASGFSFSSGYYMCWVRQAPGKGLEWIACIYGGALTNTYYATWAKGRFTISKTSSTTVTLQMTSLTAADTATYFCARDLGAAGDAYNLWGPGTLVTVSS VL: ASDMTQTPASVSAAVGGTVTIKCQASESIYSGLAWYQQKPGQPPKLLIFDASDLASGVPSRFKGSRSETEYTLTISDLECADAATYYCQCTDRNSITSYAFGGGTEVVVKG	7.72
rabbit anti-human IgG monoclonal antibody clone 9E6 (antibody, V domains shown) VH: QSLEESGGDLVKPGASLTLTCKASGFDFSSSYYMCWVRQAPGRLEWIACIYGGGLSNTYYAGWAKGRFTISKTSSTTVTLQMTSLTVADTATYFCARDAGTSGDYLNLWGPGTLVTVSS VL: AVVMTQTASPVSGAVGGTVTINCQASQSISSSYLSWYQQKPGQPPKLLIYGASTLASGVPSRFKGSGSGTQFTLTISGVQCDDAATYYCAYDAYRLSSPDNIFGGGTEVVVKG	10.2

Let us move to another entry and its ELISA signal ratio hIgG1/CynoIgG.
Qu. Any idea what its ELISA signal ratio hIgG1/CynoIgG is? The binder is rabbit anti-human IgG monoclonal antibody clone 16F5 (antibody, V domains shown) VH: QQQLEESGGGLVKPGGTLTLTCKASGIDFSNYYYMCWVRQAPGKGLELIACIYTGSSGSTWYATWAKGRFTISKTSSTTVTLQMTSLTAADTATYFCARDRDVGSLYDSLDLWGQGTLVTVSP VL: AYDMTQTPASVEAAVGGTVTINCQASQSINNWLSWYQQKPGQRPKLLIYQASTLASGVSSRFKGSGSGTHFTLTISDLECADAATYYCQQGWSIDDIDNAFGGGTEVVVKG
Ans. 5.9
